target: UniProtKB Q14289; test: radiometric filter-binding kinase assay, Kinase HotSpot; settings: compound 0.5 µM; ATP 10 µM
Sequence (Q14289 whole entry, looked up): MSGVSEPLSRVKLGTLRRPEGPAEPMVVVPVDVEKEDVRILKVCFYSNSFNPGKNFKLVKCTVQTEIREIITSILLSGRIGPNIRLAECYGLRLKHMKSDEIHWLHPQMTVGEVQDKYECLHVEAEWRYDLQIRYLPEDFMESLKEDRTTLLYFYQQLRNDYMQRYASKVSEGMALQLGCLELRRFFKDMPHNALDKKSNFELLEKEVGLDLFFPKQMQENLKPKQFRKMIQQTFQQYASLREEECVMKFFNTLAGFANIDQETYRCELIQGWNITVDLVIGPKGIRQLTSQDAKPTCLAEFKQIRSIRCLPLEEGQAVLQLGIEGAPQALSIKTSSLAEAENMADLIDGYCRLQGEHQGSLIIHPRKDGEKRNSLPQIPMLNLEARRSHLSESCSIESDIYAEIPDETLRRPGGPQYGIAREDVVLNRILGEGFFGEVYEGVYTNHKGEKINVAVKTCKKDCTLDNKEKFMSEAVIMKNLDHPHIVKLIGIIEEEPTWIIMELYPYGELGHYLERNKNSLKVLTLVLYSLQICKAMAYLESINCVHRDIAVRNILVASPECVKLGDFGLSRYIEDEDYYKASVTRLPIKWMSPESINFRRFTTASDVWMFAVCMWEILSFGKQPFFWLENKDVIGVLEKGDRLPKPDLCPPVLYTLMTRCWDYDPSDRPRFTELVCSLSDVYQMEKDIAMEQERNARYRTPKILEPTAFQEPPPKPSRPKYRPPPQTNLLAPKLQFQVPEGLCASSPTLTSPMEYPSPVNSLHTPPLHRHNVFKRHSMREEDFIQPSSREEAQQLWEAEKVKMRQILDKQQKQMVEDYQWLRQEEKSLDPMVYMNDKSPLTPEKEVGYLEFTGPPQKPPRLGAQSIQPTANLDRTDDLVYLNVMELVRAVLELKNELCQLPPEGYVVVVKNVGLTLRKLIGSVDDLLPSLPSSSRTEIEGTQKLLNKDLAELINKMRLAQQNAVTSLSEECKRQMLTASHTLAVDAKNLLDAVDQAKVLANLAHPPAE

# compound, residual activity (%)
data = [
    ("O=C1Nc2cc(Br)ccc2/C1=C1/Nc2ccccc2/C1=N\\O", 56.7),
    ("O=C1Nc2ccccc2/C1=C\\c1c(Cl)[nH]c2ccccc12", 95.5),
    ("Nc1nc(Nc2ccc(S(N)(=O)=O)cc2)nn1C(=O)c1c(F)cccc1F", 79.7),
    ("CCCNC(=O)Nc1ccc(Oc2ncnc3cc(OC)c(OC)cc23)cc1Cl", 88),
    ("CSc1nc(-c2ccc(F)cc2)c(-c2ccnc(NC(C)c3ccccc3)c2)[nH]1 (stereo unspecified)", 100),
    ("COc1cc2ncnc(Nc3ccc(F)c(Cl)c3)c2cc1OCCCN1CCOCC1", 98.9),
    ("NC(=O)c1ccc(N(C(N)=O)c2c(F)cccc2F)nc1-c1ccc(F)cc1F", 102),
    ("CS(=O)c1ccc(-c2nc(-c3ccc(F)cc3)c(-c3ccncc3)[nH]2)cc1 (stereo unspecified)", 92.5),
    ("O=C1Cc2c([nH]c3ccc([N+](=O)[O-])cc23)-c2ccccc2N1", 82.9),
    ("O=c1cc(N2CCNCC2)oc2c(-c3ccccc3)cccc12", 88.3),
    ("O=c1cc(-c2cccc3c2Sc2ccccc2S3)oc(N2CCOCC2)c1", 106),
    ("Cc1cc2ncc(-c3ccccc3)nc2cc1C", 92.1),
    ("C#Cc1cccc(Nc2ncnc3cc(OCCOC)c(OCCOC)cc23)c1", 97.6),
    ("Cc1ccc(NC(=O)c2ccc(CN3CCN(C)CC3)cc2)cc1Nc1nc(-c2cccnc2)cs1", 98.9),
    ("CC(C)(C)c1nc2c3ccc(F)cc3c3c(=O)[nH]ccc3c2[nH]1", 48.4),
    ("COc1ccc(-c2cnc3c(-c4ccsc4)cnn3c2)cc1", 81.8),
]
